Kindly supply the reported pKd values for the records listed here.
# Target entity: HLA-B*40:01
# Protocol summary: IEDB peptide-MHC binding, purified MHC/direct/fluorescence; filed as Kd, often an IC50 or EC50 that approximates it; bounds were set here for any values at or beyond the usual limits of such assays
# Assay context: source organism: Giardia lamblia ATCC 50803
pKd: −log10 of the molar value.

// known answers, use as guide
1. ITFHNQRDF    ≤ 4.70
2. ISYTYNDNW    ≤ 4.70

Now let's try a different one.
I am curious: what pKd value has been reported for `GMLSSLHTL` ?
≤ 4.70

---

# Target entity: HLA-A*02:01
# Protocol summary: IEDB peptide-MHC binding, purified MHC/competitive/fluorescence; filed as Kd, often an IC50 or EC50 that approximates it; bounds were set here for any values at or beyond the usual limits of such assays
# Assay context: source organism: Human alphaherpesvirus 1 strain 17
I'd appreciate it if you could supply Kd values for the items below.
Give bare numbers, in nM.

1) RIQQYMFFM    81

Pending sequence:
Can you look up Kd on HLA-A*02:01 for `ALSALLTKL` ?
313

---

# Target entity: HLA-A*02:16
# Protocol summary: IEDB peptide-MHC binding, purified MHC/direct/fluorescence; filed as Kd, often an IC50 or EC50 that approximates it; bounds were set here for any values at or beyond the usual limits of such assays
# Assay context: source organism: Yersinia pestis CA88-4125
Measured parameter: Kd

Which value of Kd has been reported for `FLPPQIPVI` in the records?
≤ 1 nM

---

# Target entity: HLA-B*08:01
# Protocol summary: IEDB peptide-MHC binding, purified MHC/competitive/fluorescence; filed as Kd, often an IC50 or EC50 that approximates it; bounds were set here for any values at or beyond the usual limits of such assays
# Assay context: source organism: Escherichia coli 536
Kindly state Kd for each of the entries shown.

1) HPASRLFPF    43.4 nM

Consider the additional sequence presented here.
Entry `YSRMLYIEF` : reported Kd = ?
≥ 20000 nM

---

# Target entity: HLA-B*15:01
# Protocol summary: IEDB peptide-MHC binding, purified MHC/competitive/radioactivity; filed as Kd, often an IC50 or EC50 that approximates it; bounds were set here for any values at or beyond the usual limits of such assays
# Assay context: source organism: Dengue virus 4 Philippines/H241/1956
For each entry below, report its Kd value.
Answers are plain numbers, in nM.

Guide cases for Kd, answers given:
1. ALMVIGMAM    2.62
2. STANIFRGSY    4.87

Value wanted: Kd (HLA-B*15:01) of entry `ALITVSGLY`
2.26

---

# Target entity: HLA-A*26:01
# Protocol summary: IEDB peptide-MHC binding, purified MHC/competitive/fluorescence; filed as Kd, often an IC50 or EC50 that approximates it; bounds were set here for any values at or beyond the usual limits of such assays
# Assay context: source organism: Influenza A virus (A/swine/Italy/1513-1/1998(H1N1))
Measured parameter: Kd

Quick one: Kd for `MMWEINGPK` ?
≥ 20 µM

---

# Target entity: HLA-B*18:01
# Protocol summary: IEDB peptide-MHC binding, purified MHC/competitive/fluorescence; filed as Kd, often an IC50 or EC50 that approximates it; bounds were set here for any values at or beyond the usual limits of such assays
# Assay context: source organism: Zaire ebolavirus
Record form. Attribute: Kd. Fill in for each entry.

1. ATEDPSSGY    ≥ 20 µM

Here's the next entry for you.
# returns recorded Kd (system: HLA-B*18:01) for `TGIVSSMHY`
≥ 20 µM

---

# Target entity: HLA-A*68:02
# Protocol summary: IEDB peptide-MHC binding, purified MHC/competitive/fluorescence; filed as Kd, often an IC50 or EC50 that approximates it; bounds were set here for any values at or beyond the usual limits of such assays
# Assay context: source organism: Mycobacterium tuberculosis C
Measured parameter: pKd
Numbers only, as −log10 of the molar value.

Given the sequence `TIHLATAPK` , what is its reported pKd?
6.12

---

# Target entity: HLA-A*33:01
# Protocol summary: IEDB peptide-MHC binding, purified MHC/competitive/radioactivity; filed as Kd, often an IC50 or EC50 that approximates it; bounds were set here for any values at or beyond the usual limits of such assays
# Assay context: source organism: Dengue virus 4 Philippines/H241/1956
Measured parameter: Kd (nM)
Answers are plain numbers, in nM.

// below: answered sequences
1. YMWQVKTQR    1.3
2. YMIGQTGIQR    79.2

Consider now this further sequence.
Data request, read-out Kd, for `MLLNRFTTR`
14.8

---

# Target entity: HLA-B*15:01
# Protocol summary: IEDB peptide-MHC binding, purified MHC/competitive/fluorescence; bounds were set here for any values at or beyond the usual limits of such assays
# Assay context: source organism: Vaccinia virus
Measured parameter: IC50 (µM)
One number for each entry, in µM.

I have this sequence here, `KQKMFSNNV` , and I need its recorded IC50.
44.4

---

# Target entity: HLA-A*68:02
# Protocol summary: IEDB peptide-MHC binding, purified MHC/competitive/fluorescence; filed as Kd, often an IC50 or EC50 that approximates it; bounds were set here for any values at or beyond the usual limits of such assays
# Assay context: source organism: Bos taurus
pKd: −log10 of the molar value.
Measured parameter: pKd

Query: pKd; subject: `KLGEGFKSL`
≤ 4.70

---

For each of the sequences below, state its pKd.
# Target entity: HLA-B*18:01
# Protocol summary: IEDB peptide-MHC binding, purified MHC/competitive/radioactivity; filed as Kd, often an IC50 or EC50 that approximates it; bounds were set here for any values at or beyond the usual limits of such assays
# Assay context: source organism: SARS coronavirus Tor2
Answers are plain numbers, as −log10 of the molar value.

Field: example entries. Status: answers known.
1. EELFYSYAT    5.98
2. TEFACVVAEA    7.22
3. WEILKFLIT    5.54

Provide pKd for all items below, preserving their order.
1. VEFHLDGEVL
2. VENPDILRV

5.49
5.04

---

# Target entity: HLA-B*27:03
# Protocol summary: IEDB peptide-MHC binding, purified MHC/direct/fluorescence; filed as Kd, often an IC50 or EC50 that approximates it; bounds were set here for any values at or beyond the usual limits of such assays
# Assay context: source organism: Burkholderia mallei ATCC 23344
Measured parameter: Kd

Kd lookup needed for `MSADNAGAL` , thanks.
≥ 20 µM

---

# Target entity: HLA-B*44:02
# Protocol summary: IEDB peptide-MHC binding, purified MHC/direct/fluorescence; filed as Kd, often an IC50 or EC50 that approximates it; bounds were set here for any values at or beyond the usual limits of such assays
# Assay context: source organism: Yersinia pestis
Task for the reader: assign each of the following sequences its reported Kd.

The examples below pair each entry with its known result.
1) QLKSRAAVL    ≥ 20 µM
2) FLPPQIPVI    ≥ 20 µM

Tell me the measured Kd of `FMSLQSGDV` , please.
≥ 20 µM

---

# Target entity: HLA-B*18:01
# Protocol summary: IEDB peptide-MHC binding, purified MHC/direct/fluorescence; filed as Kd, often an IC50 or EC50 that approximates it; bounds were set here for any values at or beyond the usual limits of such assays
# Assay context: source organism: Yersinia pestis
Measured parameter: Kd

Query: Kd; subject: `QLKSRAAVL`
≥ 20 µM

---

# Target entity: HLA-B*39:01
# Protocol summary: IEDB peptide-MHC binding, purified MHC/competitive/fluorescence; filed as Kd, often an IC50 or EC50 that approximates it; bounds were set here for any values at or beyond the usual limits of such assays
# Assay context: source organism: Orthohantavirus seoulense
Measured parameter: Kd

Quick one: Kd of `KPKHLYVSM` ?
≥ 20 µM

---

# Target entity: HLA-A*03:01
# Protocol summary: IEDB peptide-MHC binding, purified MHC/direct/fluorescence; filed as Kd, often an IC50 or EC50 that approximates it; bounds were set here for any values at or beyond the usual limits of such assays
# Assay context: source organism: Shigella flexneri
pKd: −log10 of the molar value.
Measured parameter: pKd

Which value of pKd has been reported for `LSSIGIPAY` in the records?
≤ 4.70

---

# Target entity: HLA-A*11:01
# Protocol summary: IEDB peptide-MHC binding, purified MHC/competitive/radioactivity; filed as Kd, often an IC50 or EC50 that approximates it; bounds were set here for any values at or beyond the usual limits of such assays
# Assay context: source organism: Vaccinia virus WR
Measured parameter: Kd
Answer with the value and then the unit.

1. MVDELVTRK    161 nM

For the 3 sequences below, give their Kd values.
1. EQQQSFMPK
2. NMRDLIVTFR
3. YLSTFNMWR

["11.3 nM", "14800 nM", "666 nM"]

---

# Target entity: HLA-B*15:17
# Protocol summary: IEDB peptide-MHC binding, purified MHC/direct/fluorescence; filed as Kd, often an IC50 or EC50 that approximates it; bounds were set here for any values at or beyond the usual limits of such assays
# Assay context: source organism: Mycobacterium tuberculosis
pKd: −log10 of the molar value.
Measured parameter: pKd

1. ALRSRWRAL    ≤ 4.70
2. RPRRASSPF    6.56
3. APRGFRAAF    5.26
4. TIHLATAPK    ≤ 4.70

Look at each sequence and report its pKd.
1. KYFVRSTEK
2. GPASLPTAL

["≤ 4.70", "≤ 4.70"]
